Reference source: patent US9949475B2

method_notes: Solubility of agrochemical active ingredient in oil comprising ionic liquid
Type: physicochemical
test_conditions: 21 °C, organic solvent or mixture, thermodynamic from solid, Solubility of fluxapyroxad with Cetiol ® B as oil

smi	solubility (mg/mL)
Cn1cc(C(=O)Nc2ccccc2-c2cc(F)c(F)c(F)c2)c(C(F)F)n1	5

###

method_notes: Solubility of UV absorber in oil comprising ionic liquid
Assay type: physicochemical
test_conditions: oil/ionic liquid mixture, 21 °C, oil or lipid, thermodynamic from solid, Oil/IL 90/10 weight ratio, IL N-ethyl-N′-ethylimidazolium octanoate, read-out: Solubility of Tinosorb ® S with Cetiol ® B as oil

molecule	solubility
CCCCC(CC)COc1ccc(-c2nc(-c3ccc(OC)cc3)nc(-c3ccc(OCC(CC)CCCC)cc3O)n2)c(O)c1 (stereo not shown) [Tinosorb ® S]	13 mg/mL
